target: UniProt P09874; experiment: PARP enzyme inhibition assay; assay type: biochemical; settings: 20 nM purified PARP (5 nM for tight-binding inhibitors), 500 μM NAD+, 25° C.; several values in one cell = repeat determinations; read-out: Inhibition Constant Ki
Sequence (P09874 whole entry): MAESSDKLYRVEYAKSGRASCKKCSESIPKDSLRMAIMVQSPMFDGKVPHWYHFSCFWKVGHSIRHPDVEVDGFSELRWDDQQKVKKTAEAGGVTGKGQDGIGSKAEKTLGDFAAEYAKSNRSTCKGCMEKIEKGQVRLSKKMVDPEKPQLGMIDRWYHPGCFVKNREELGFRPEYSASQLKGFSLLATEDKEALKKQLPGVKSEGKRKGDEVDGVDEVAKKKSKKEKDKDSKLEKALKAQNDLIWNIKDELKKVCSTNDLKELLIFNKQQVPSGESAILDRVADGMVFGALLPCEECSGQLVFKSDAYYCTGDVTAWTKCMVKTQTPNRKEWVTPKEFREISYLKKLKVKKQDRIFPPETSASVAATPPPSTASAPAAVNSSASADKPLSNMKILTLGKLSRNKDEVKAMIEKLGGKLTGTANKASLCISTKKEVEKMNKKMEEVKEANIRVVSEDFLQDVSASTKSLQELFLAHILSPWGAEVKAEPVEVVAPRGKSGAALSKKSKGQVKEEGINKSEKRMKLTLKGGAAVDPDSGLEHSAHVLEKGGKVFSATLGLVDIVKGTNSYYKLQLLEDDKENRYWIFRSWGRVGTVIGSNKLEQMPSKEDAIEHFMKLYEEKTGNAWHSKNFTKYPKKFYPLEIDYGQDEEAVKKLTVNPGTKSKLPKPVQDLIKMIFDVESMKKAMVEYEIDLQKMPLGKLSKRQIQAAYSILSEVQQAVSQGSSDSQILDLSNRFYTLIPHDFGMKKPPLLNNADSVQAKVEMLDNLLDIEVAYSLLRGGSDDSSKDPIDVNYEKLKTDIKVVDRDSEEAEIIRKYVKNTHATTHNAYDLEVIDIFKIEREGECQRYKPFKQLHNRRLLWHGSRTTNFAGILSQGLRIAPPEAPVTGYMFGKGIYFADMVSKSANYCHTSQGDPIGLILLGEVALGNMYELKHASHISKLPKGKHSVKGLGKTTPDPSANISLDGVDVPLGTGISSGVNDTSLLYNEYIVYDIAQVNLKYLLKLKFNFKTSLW
Define the label as yes when Ki is strictly less than 7 nM and as no in all remaining cases.

* O=C1NCCn2c(-c3ccc(CO)cc3)nc3cccc1c32 [Example 58a] | yes
* CCCCN(CCO)Cc1ccc(-c2nc3cccc4c3n2CCNC4=O)cc1 | no
* O=C1NCCn2c(-c3ccc(CN4CCC[C@@H]4C(=O)OCc4ccccc4)cc3)nc3cccc1c32 | no
* O=C1NCCn2c(-c3ccc(CNCCc4ccccn4)cc3)nc3cccc1c32 | no
* CCOC(=O)CCN(Cc1ccc(-c2nc3cccc4c3n2CCNC4=O)cc1)Cc1ccco1 | no
* O=C1NCCn2c(-c3ccc(F)c(F)c3)nc3cccc1c32 | yes
* O=C1NCCn2c(NCc3ccccc3)nc3cccc1c32 | no
* O=C1NCCn2c(C(F)(F)F)nc3cccc1c32 | no
* O=C1NCCn2c(-c3ccc(CNC4CC4)cc3)nc3cccc1c32 | yes
* Cc1ccc(-c2onc3ccc(-c4nc5cccc6c5n4CCNC6=O)cc23)cc1 | no
* O=C1NCCn2c(-c3ccc(CNCc4ccc5c(c4)OCO5)cc3)nc3cccc1c32 | yes
* O=C1NCCn2c(-c3ccc(Cn4cccc4)cc3)nc3cccc1c32 | yes
* CCCN(CCC)Cc1ccc(-c2nc3cccc4c3n2CCNC4=O)cc1 | no
* C#CCNCc1ccc(-c2nc3cccc4c3n2CCNC4=O)cc1 | yes

Values compiled from patent US6548494B1.
